Recorded values, source PubChem BioAssay (EPA / NIEHS).

# ASSAY_OVERVIEW: Tanguay_ZF_120hpf_JAW_legacy: (Legacy) Oregon State University Tanguay Lab 120 Hour Post-fertilization zebrafish Assay for Jaw Malformation (AID 2283638);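 for AC50: active means more embryos with jaw malformation than DMSO controls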
Records with an inconclusive call do not appear. Active and inactive are the calls of the source. Rule for the calls: active = hit-call score of the fitted dose curve at least 0.9, where 1 is the maximum; inconclusive = response in the unintended direction; inactive = score below 0.9.
READOUT_TYPE: AC50

See these solved cases before continuing.
molecule="CC1COC(Cn2cncn2)(c2ccc(Oc3ccc(Cl)cc3)cc2Cl)O1 (configuration not stated)" result="26.6 µM (active)"
molecule=COC(=O)c1ccccc1C(=O)OC result=inactive
molecule=CCNc1nc(Cl)nc(NCC)n1 result=inactive
molecule=O=C(O)COc1nc(Cl)c(Cl)cc1Cl result=inactive
molecule=COc1cnc(OC)n2nc(NS(=O)(=O)c3c(OCC(F)F)cccc3C(F)(F)F)nc12 result=inactive

Count: 7. Required value per item: AC50.
1. COC(=O)C=C(C)OP(=O)(OC)OC
2. CNC(=O)ON=CC(C)(C)SC
3. CON(C)C(=O)Nc1ccc(Cl)c(Cl)c1
4. CCCCC(CC)COC(=O)c1ccccc1C(=O)OCC(CC)CCCC (configuration not stated)
5. CCOC(=O)C(Cl)Cc1cc(-n2nc(C)n(C(F)F)c2=O)c(F)cc1Cl (configuration not stated)
6. OC(c1ccc(Cl)cc1)(c1cncnc1)c1ccccc1Cl (configuration not stated)
7. COc1nc(NC(C)C)nc(NC(C)C)n1

Result:
["inactive", "inactive", "inactive", "inactive", "5.22 µM (active)", "inactive", "inactive"]

###

# ASSAY_OVERVIEW: APR_HepG2_MicrotubuleCSK_1hr: Apredica 1-hour HepG2 Assay for Microtubule CSK Stabilty (AID 2282669)
# CONDITION_DESCRIPTION: HepG2 microtubule cytoskeleton imaging, actives raise or lower the signal
Active and inactive are the calls of the source. Rule for the calls: active = hit-call score of the fitted dose curve at least 0.9, where 1 is the maximum; inactive = score below 0.9.
READOUT_TYPE: outcome

See these solved cases before continuing.
compound=CCCCNC(=O)OCC#CI readout_type=outcome result=inactive
compound=COP(=S)(OC)Oc1nc(Cl)c(Cl)cc1Cl readout_type=outcome result=inactive
compound=Cc1ccc(-c2c(Cl)nc(C#N)n2S(=O)(=O)N(C)C)cc1 readout_type=outcome result=inactive
compound="CC(C)C1(C)N=C(c2nc3ccccc3cc2C(=O)O)NC1=O (centres undefined)" readout_type=outcome result=inactive
compound=Oc1ccccc1-c1ccccc1 readout_type=outcome result=inactive
compound=COc1nc(NC(C)C)nc(NC(C)C)n1 readout_type=outcome result=inactive

Count: 8. Required value per item: outcome.
1. CC(C)(C)c1ccc(CSc2cnn(C(C)(C)C)c(=O)c2Cl)cc1
2. N#Cc1nn(-c2c(Cl)cc(C(F)(F)F)cc2Cl)c(N)c1S(=O)C(F)(F)F (centres undefined)
3. O=C(Nc1ccccc1)Nc1ccnc(Cl)c1
4. Cc1c(F)c(F)c(COC(=O)C2C(/C=C(\Cl)C(F)(F)F)C2(C)C)c(F)c1F (centres undefined)
5. N#Cc1cc(Br)c(O)c(Br)c1
6. COC(=O)C=C(C)OP(=O)(OC)OC
7. CCOC(=O)C(Cl)Cc1cc(-n2nc(C)n(C(F)F)c2=O)c(F)cc1Cl (centres undefined)
8. CCCN(CCC)c1c([N+](=O)[O-])cc(S(N)(=O)=O)cc1[N+](=O)[O-]

Result:
inactive
inactive
inactive
inactive
inactive
inactive
inactive
inactive

###

For each record, write down the corresponding AC50.
# ASSAY_OVERVIEW: BSK_SAg_Proliferation: Cell Proliferation Assessment in the BioMAP Diversity Plus: SAg Assay (AID 2283095);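 note: relative cell number as total protein by SRB absorbance in sub-confluent culture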
# CONDITION_DESCRIPTION: primary human HUVEC with PBMC
Active and inactive are the calls of the source. The calls were made as follows: active = hit-call score of the fitted dose curve at least 0.9, where 1 is the maximum; inactive = score below 0.9.

See these solved cases before continuing.
compound=COP(=S)(OC)Oc1nc(Cl)c(Cl)cc1Cl result="20 µM (active)"
compound="C#CCOS(=O)OC1CCCCC1Oc1ccc(C(C)(C)C)cc1 (stereo not given)" result="1.16 µM (active)"
compound=CCCCNC(=O)n1c(NC(=O)OC)nc2ccccc21 result="6.25 µM (active)"

Count: 2. Required value per item: AC50.
1. CCOP(=S)(OCC)SCn1c(=O)oc2cc(Cl)ccc21
2. CCc1nn(C)c(C(=O)NCc2ccc(C(C)(C)C)cc2)c1Cl

Result:
29 µM (active)
20 µM (active)
